Ref: patent US20240417484A1

Measured percent inhibition of binding, listed per entry.
testedTarget: T1, human CD73 on cells (CD73-transfected HEK cells; native on PBMCs; OCI-AML3 cells) (human, UniProt P21589 27-549)
T1 construct: also called NT5E; gene ID 4907
T1 sequence: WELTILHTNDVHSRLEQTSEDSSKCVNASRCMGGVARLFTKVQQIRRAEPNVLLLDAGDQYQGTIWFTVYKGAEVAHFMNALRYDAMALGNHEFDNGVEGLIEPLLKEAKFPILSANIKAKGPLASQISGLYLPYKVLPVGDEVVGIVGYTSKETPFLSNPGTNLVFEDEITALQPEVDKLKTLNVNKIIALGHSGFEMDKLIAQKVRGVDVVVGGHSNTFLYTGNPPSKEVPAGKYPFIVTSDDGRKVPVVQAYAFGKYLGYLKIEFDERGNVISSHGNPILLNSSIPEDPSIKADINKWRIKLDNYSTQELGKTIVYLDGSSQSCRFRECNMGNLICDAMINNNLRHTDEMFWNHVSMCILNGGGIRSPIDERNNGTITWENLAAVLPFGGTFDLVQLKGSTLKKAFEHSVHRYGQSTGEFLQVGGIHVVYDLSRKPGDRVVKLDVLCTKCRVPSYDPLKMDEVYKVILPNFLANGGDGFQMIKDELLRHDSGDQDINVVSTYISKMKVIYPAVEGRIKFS
method: flow cytometry, human CD73-expressing cells; competitor: human IgG hcAb SB139
recordedEndpoint: percent inhibition of binding

binder	result
SB139 rabbit IgG hcAb (Fc fusion, not shown: hinge and Fc-domains of rabbit IgG) heavy: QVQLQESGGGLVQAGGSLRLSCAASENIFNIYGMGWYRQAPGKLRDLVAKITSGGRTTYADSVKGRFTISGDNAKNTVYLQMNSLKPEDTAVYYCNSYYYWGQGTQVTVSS	50%
SB96 rabbit IgG hcAb (Fc fusion, VHH fused upstream of hinge and Fc of rabbit IgG; also called Nb-rbIgG hcAb SB96; not shown: hinge and Fc-domains of rabbit IgG) heavy: DVQLQASGGGLVQPGGSLRLSCTASGFTLDYLSIGWFRQVPGKEREGVSCINSSGGSTNYADSLKGRLTISRDNAKNTVYLQMNSLKPEDTAVYYCAAHKYYYCSNKVEVFDYWGQGTPVTVSS	-25%
SB116 rabbit IgG hcAb (Fc fusion, also called SB116-rbFc; dimeric SB116 Fc construct; not shown: hinge and Fc-domains of rabbit IgG) heavy: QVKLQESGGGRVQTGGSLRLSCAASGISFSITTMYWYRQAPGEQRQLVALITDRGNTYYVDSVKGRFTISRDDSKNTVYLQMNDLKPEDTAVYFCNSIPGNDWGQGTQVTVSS	2%
SB141 rabbit IgG hcAb (Fc fusion, not shown: hinge and Fc-domains of rabbit IgG) heavy: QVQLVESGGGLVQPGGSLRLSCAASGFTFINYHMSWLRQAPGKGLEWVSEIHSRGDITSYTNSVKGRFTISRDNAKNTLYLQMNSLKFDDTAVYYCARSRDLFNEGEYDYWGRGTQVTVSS	-7%
SB143 rabbit IgG hcAb (Fc fusion, not shown: hinge and Fc-domains of rabbit IgG) heavy: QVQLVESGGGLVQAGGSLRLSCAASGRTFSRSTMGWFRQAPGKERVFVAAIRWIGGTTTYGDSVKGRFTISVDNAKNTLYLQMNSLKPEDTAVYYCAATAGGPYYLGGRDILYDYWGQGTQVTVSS	16%
SB121 rabbit IgG hcAb (Fc fusion, not shown: hinge and Fc-domains of rabbit IgG) heavy: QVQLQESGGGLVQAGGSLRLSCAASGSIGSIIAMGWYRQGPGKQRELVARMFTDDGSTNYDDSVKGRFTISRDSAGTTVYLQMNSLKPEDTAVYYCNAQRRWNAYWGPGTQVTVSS	0%
